- Tested On: COS-7/AMY3 (human calcitonin receptor (CTR) and RAMP3) (Homo sapiens, UniProt O60896+P30988)
- Construct: expressed in transfected cells; host or cells: COS-7
- Sequence (P30988 25-474): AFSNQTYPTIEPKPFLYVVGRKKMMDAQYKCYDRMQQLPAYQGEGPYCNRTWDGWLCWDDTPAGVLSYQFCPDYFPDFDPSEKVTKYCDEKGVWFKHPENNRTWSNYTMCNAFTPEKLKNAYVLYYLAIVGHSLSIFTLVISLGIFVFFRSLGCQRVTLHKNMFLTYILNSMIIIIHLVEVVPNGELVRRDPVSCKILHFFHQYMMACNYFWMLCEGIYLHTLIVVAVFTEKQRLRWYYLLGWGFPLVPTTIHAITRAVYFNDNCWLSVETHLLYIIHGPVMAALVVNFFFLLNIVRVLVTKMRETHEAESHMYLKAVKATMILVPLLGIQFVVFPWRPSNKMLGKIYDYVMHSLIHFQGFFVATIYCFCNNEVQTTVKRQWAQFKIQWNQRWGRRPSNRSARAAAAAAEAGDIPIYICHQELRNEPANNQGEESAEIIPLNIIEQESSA
- Sequence (O60896 24-148): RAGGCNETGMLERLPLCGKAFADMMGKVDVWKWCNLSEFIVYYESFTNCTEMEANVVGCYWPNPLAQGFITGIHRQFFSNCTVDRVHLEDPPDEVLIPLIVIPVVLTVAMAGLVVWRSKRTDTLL
- Assay Info: Amylin Receptor cAMP Assay II
- Type: cell-based
- Experimental Setup: values marked **: Amylin Receptor cAMP Assay II; COS-7/AMY3 cells, cAMP dynamic 2 kit, 30 min; read-out: Amylin Receptor cAMP Stimulation Activity: EC50
Measurement Type: EC50 (nM)

> print(dat)
                                item.smiles  observed.measurement
1  O=C1c2c(nc(CCc3ccc(F)cc3)c(-c3n[nH]c(=O)o3)c2-c2cc3ccnc(N[C@@H]4CCc5cc(F)ccc54)c3s2)C23CC(CN12)C3                 0.935
2  O=C1c2c(nc(CCc3ccc(F)cc3)c(-c3n[nH]c(=O)o3)c2-c2cc3ccnc(N[C@@H]4CCc5cc(F)ccc54)c3s2)[C@@H]2CCCN12                  3.59
3  O=C1c2c(nc(CCc3ccc(F)cc3)c(-c3n[nH]c(=O)o3)c2-c2cc3ccnc(N[C@@H]4CCOc5c(F)cc(F)cc54)c3s2)C23CC(CN12)C3                  2.68

P: O=C1c2c(nc(CCc3ccc(F)cc3)c(-c3noc(=O)[nH]3)c2-c2ccc3c(c2)CCCN3CCc2ccc(F)c(F)c2)[C@@H]2CCCN12
Q: N#Cc1cc2c(cc1F)[C@H](Nc1nccc3cc(-c4c5c(nc(CCc6ccc(F)cc6)c4-c4n[nH]c(=O)o4)[C@@H]4CCCN4C5=O)sc13)CC2
R: COc1cccc2c1CC[C@H]2Nc1nccc2cc(-c3c4c(nc(CCc5cc(F)cs5)c3-c3n[nH]c(=O)o3)[C@@H]3CCCN3C4=O)sc12
Rank items: key EC50, increasing. Form field (ranking): labels in requested order.
Q, R, P

====

- Tested On: human calcitonin receptor (CTR) (Homo sapiens)
- Sequence (P30988 25-474): as the sequence (P30988 25-474) above
- Assay Info: Calcitonin Receptor (CTR) cAMP Assay
- Experimental Setup: COS7-human CTR Clone #2 stable cell line, cAMP dynamic 2 kit, 30 min; read-out: Calcitonin Receptor cAMP Stimulation Activity: EC50
pEC50: −log10 of the molar value.
Measurement Type: pEC50

> print(dat)
                                item.smiles  measurement.type  observed.measurement
1  O=C1c2c(nc(CCc3ccc(F)cc3)c(-c3n[nH]c(=O)o3)c2-c2cc3ccnc(N[C@@H]4CCc5c4ccc(F)c5OC(F)F)c3s2)C23CC(CN12)C3             pEC50                 10.87
2  COc1c(F)ccc2c1CC[C@H]2Nc1nccc2cc(-c3c4c(nc(CCc5cccc(Cl)c5)c3-c3n[nH]c(=O)o3)C35CC(CN3C4=O)C5)sc12             pEC50                 10.68

A: COc1ccc(CCc2nc3c(c(-c4cc5ccnc(N[C@@H]6CCc7c(OC)cccc76)c5s4)c2-c2n[nH]c(=O)o2)C(=O)N2CCC[C@@H]32)cc1F
B: COc1c(F)ccc2c1CC[C@H]2Nc1nc(C)cc2cc(-c3c4c(nc(CCc5cccc(F)c5)c3-c3n[nH]c(=O)o3)C35CC(CN3C4=O)C5)sc12
C: COc1c(F)ccc2c1CC(F)(F)[C@@H]2Nc1nccc2cc(-c3c4c(nc(CCc5ccc(F)cc5)c3-c3n[nH]c(=O)o3)[C@@H]3CCCN3C4=O)sc12
D: COc1cccc2c1CC[C@H]2Nc1nccc2cc(-c3c4c(nc(CCc5ccc(F)cc5)c3-c3n[nH]c(=O)o3)[C@H]3N(CCC3(C)C)C4=O)sc12
Arrange the 4 compounds by rising pEC50, starting with the smallest. Would you mind listing the labels in the order asked for?
C, D, A, B
(C: 7.75, D: 8.11, A: 8.94, B: 10.80)
